system: Escherichia coli; assay: Antimicrobial activity against Escherichia coli ATCC 25922 by […]; assay type: functional
Square brackets hold non-standard residues; d marks the D form. Peptide text beside a SMILES is read from it. * marks the point of attachment. Palmitoyl = CCCCCCCCCCCCCCCC(=O)*; Lauroyl = CCCCCCCCCCCC(=O)*

| compound | targetDesc | MIC, µg/mL |
| --- | --- | --- |
| CCCCCCCCCCCC(=O)N[C@H](CCCN)CC(=O)N[C@@H](CC(=O)N[C@@H](CC(=O)N[C@H](CCCN)CC(=O)O)C(C)C)C(C)C | Escherichia coli | 64 |
| CCCCCCCCCCCCCCCC(=O)N[C@@H](CCCCN)C(=O)N[C@@H](C)C(=O)N[C@@H](C)C(=O)N[C@@H](CCCCN)C(=O)O (Palmitoyl-KAAK-OH) | Escherichia coli | 16 |
| CCCCCCCCCCCCCCCC(=O)N[C@@H](CCCCN)C(=O)NCC(=O)NCC(=O)N[C@H](CCCCN)C(=O)O | Escherichia coli | 16 |
| CCCCCCCCCCCCCCCC(=O)N[C@@H](CCCCN)C(=O)N[C@@H](C)C(=O)N[C@H](C)C(=O)N[C@@H](CCCCN)C(=O)O (Palmitoyl-KA[dA]K-OH) | Escherichia coli | 32 |
| CCCCCCCCCCCCCCCC(=O)N[C@@H](CCCCN)C(=O)NCC(=O)NCC(=O)N[C@@H](CCCCN)C(=O)O | Escherichia coli | 16 |
| CCCCCCCCCCCCCCCC(=O)N[C@@H](CCCCN)C(=O)N[C@@H](CCCCN)C(=O)N[C@@H](CCCCN)C(=O)N[C@@H](CCCCN)C(=O)O (Palmitoyl-KKKK-OH) | Escherichia coli | 16 |
| CCCCCCCCCCCCCCCC(=O)N[C@H](CCCN)CC(=O)NCC(=O)NCC(=O)N[C@H](CCCN)CC(=O)O | Escherichia coli | 32 |
| CCCCCCCCCCCCCCCC(=O)N[C@@H](CCCCN)C(=O)N[C@@H](CCCCN)C(=O)N[C@H](CCCCN)C(=O)N[C@@H](CCCCN)C(=O)O (Palmitoyl-KK[dK]K-OH) | Escherichia coli | 32 |
| CCCCCCCCCCCC(=O)N[C@@H](CCCCN)C(=O)N[C@@H](CC(C)C)C(=O)N[C@H](CC(C)C)C(=O)N[C@@H](CCCCN)C(=O)O (Lauroyl-KL[dL]K-OH) | Escherichia coli | 64 |

* * *

Listing: MIC of selected molecules
system: Streptococcus pneumoniae; assay: Antimicrobial activity against Streptococcus pneumoniae ATCC 49619 […]; assay type: functional
Square brackets hold non-standard residues; d marks the D form. Peptide text beside a SMILES is read from it. * marks the point of attachment. Palmitoyl = CCCCCCCCCCCCCCCC(=O)*; Lauroyl = CCCCCCCCCCCC(=O)*

| molecule | MIC |
| --- | --- |
| CCCCCCCCCCCCCCCC(=O)N[C@@H](CCCCN)C(=O)N[C@@H](C)C(=O)N[C@H](C)C(=O)N[C@@H](CCCCN)C(=O)O (Palmitoyl-KA[dA]K-OH) | 128 µg/mL |
| CCCCCCCCCCCCCCCC(=O)N[C@@H](CCCCN)C(=O)NCC(=O)NCC(=O)N[C@@H](CCCCN)C(=O)O | 128 µg/mL |
| CCCCCCCCCCCC(=O)N[C@@H](CCCCN)C(=O)N[C@@H](CC(C)C)C(=O)N[C@H](CC(C)C)C(=O)N[C@@H](CCCCN)C(=O)O (Lauroyl-KL[dL]K-OH) | 64 µg/mL |
| CCCCCCCCCCCCCCCC(=O)N[C@H](CCCN)CC(=O)NCCC(=O)NCCC(=O)N[C@H](CCCN)CC(=O)O | > 64 µg/mL |
| CCCCCCCCCCCC(=O)N[C@@H](CCCCN)C(=O)N[C@@H](CC(C)C)C(=O)N[C@@H](CC(C)C)C(=O)N[C@@H](CCCCN)C(=O)O (Lauroyl-KLLK-OH) | 128 µg/mL |
| CCCCCCCCCCCC(=O)N[C@H](CCCN)CC(=O)N[C@@H](CC(=O)N[C@@H](CC(=O)N[C@H](CCCN)CC(=O)O)C(C)C)C(C)C | 128 µg/mL |
| CCCCCCCCCCCCCCCC(=O)N[C@@H](CCCCN)C(=O)N[C@@H](CCCCN)C(=O)N[C@H](CCCCN)C(=O)N[C@@H](CCCCN)C(=O)O (Palmitoyl-KK[dK]K-OH) | > 32 µg/mL |
| CCCCCCCCCCCCCCCC(=O)N[C@@H](CCCCN)C(=O)NCC(=O)NCC(=O)N[C@H](CCCCN)C(=O)O | 128 µg/mL |
| CCCCCCCCCCCCCCCC(=O)N[C@H](CCCN)CC(=O)NCC(=O)NCC(=O)N[C@H](CCCN)CC(=O)O | 128 µg/mL |
| CCCCCCCCCCCCCCCC(=O)N[C@H](CCCN)CC(=O)N[C@H](CCCN)CC(=O)N[C@H](CCCN)CC(=O)N[C@H](CCCN)CC(=O)O | 128 µg/mL |
| CCCCCCCCCCCCCCCC(=O)N[C@@H](CCCCN)C(=O)N[C@@H](CCCCN)C(=O)N[C@@H](CCCCN)C(=O)N[C@@H](CCCCN)C(=O)O (Palmitoyl-KKKK-OH) | > 64 µg/mL |
| CCCCCCCCCCCCCCCC(=O)N[C@@H](CCCCN)C(=O)N[C@@H](C)C(=O)N[C@@H](C)C(=O)N[C@@H](CCCCN)C(=O)O (Palmitoyl-KAAK-OH) | 128 µg/mL |
